Entries annotated with measured z-score
assay: S. cerevisiae growth modulation with rapamycin, primary screen, strain BY4716, OD600, 96 h (AID 1091); conditions: higher = more signal, called active from +8 up or from −8 down; further: test concentration not given here
Quantity: z-score

>>> measurement("COCCOC(=O)N1C(=O)[C@@]2(c3cc(C#CCCO)ccc31)[C@H](C(=O)N1CCN(c3ncccn3)CC1)[C@H]1C(=O)O[C@H](c3ccccc3)[C@H](c3ccccc3)N1[C@@H]2c1ccc(OCCO)cc1")
5.64
>>> measurement("C=CCNC(=O)[C@H]1[C@@H]2C(=O)O[C@@H](c3ccccc3)[C@@H](c3ccccc3)N2[C@@H](c2ccc(OCCO)cc2)[C@]12C(=O)N(C(=O)OCCOC)c1ccc(C#CCC(C(=O)OC)C(=O)OC)cc12")
6.82
>>> measurement("COC(=O)C(CC#Cc1ccc2c(c1)[C@]1(C(=O)N2)[C@H](c2ccc(OCCO)cc2)N2[C@H](c3ccccc3)[C@H](c3ccccc3)OC(=O)[C@H]2[C@@H]1C(N)=O)C(=O)OC")
6.23
>>> measurement("COC(=O)[C@@]1(Cc2ccc(OC)cc2)[C@H]2c3cc(C(=O)N(C)C)n(Cc4c(CO)[nH]cc(C)c4=O)c3C[C@H]2CN1C(=O)c1ccccc1")
-0.622
>>> measurement("CC(=O)NCCCC[C@@H]1NC(=O)[C@H]2C[C@@H](C(=O)O)[C@@H](c3cccc(OCCO)c3)N2C1=O")
-0.453
>>> measurement("CC(C)[Si](C#Cc1ccccc1)(O[C@H](c1ccccc1)c1cn(Cc2ccccc2)nn1)C(C)C")
-2.28
